Test system: Staphylococcus aureus
METHOD_DESCRIPTION: Antibacterial activity against ermC-inducible resistant Staphylococcus aureus after 20 hrs by agar dilution method
Assay type: functional
# key: entry, value: MIC

CHEMICAL_STRUCTURE	MIC (µg/mL)
CCC(=O)O[C@@H]1CC(=O)O[C@H](C)C[C@H](O)[C@H](N(C)CCCc2cccc3ccccc23)/C=C/[C@H](OC(C)=O)[C@H](C)C[C@H](CC=O)[C@H](O[C@@H]2O[C@H](C)[C@@H](O)[C@H](N(C)C)[C@H]2O)[C@H]1OC	0.78
CCC(=O)O[C@@H]1CC(=O)O[C@H](C)C[C@H](O)[C@H](N(C)C)/C=C/[C@H](OC(C)=O)[C@H](C)C[C@H](CC=O)[C@H](O[C@@H]2O[C@H](C)[C@@H](O[C@H]3C[C@@](C)(O)[C@@H](OC(=O)CC)[C@H](C)O3)[C@H](N(C)C)[C@H]2O)[C@H]1OC	0.78
CCC(=O)O[C@@H]1CC(=O)O[C@H](C)C[C@H](O)[C@H](N(C)CCCc2ccnc3ccccc23)/C=C/[C@H](OC(C)=O)[C@H](C)C[C@H](CC=O)[C@H](O[C@@H]2O[C@H](C)[C@@H](O)[C@H](N(C)C)[C@H]2O)[C@H]1OC	0.39
CCC(=O)O[C@@H]1CC(=O)O[C@H](C)C[C@H](O)[C@H](N(C)Cc2ccccc2)/C=C/[C@H](OC(C)=O)[C@H](C)C[C@H](CC=O)[C@H](O[C@@H]2O[C@H](C)[C@@H](O[C@H]3C[C@@](C)(O)[C@@H](OC(=O)CC)[C@H](C)O3)[C@H](N(C)C)[C@H]2O)[C@H]1OC	0.39
CCC(=O)O[C@@H]1CC(=O)O[C@H](C)C[C@H](O)[C@H](N(C)CCCc2ccccc2)/C=C/[C@H](OC(C)=O)[C@H](C)C[C@H](CC=O)[C@H](O[C@@H]2O[C@H](C)[C@@H](O[C@H]3C[C@@](C)(O)[C@@H](OC(=O)CC)[C@H](C)O3)[C@H](N(C)C)[C@H]2O)[C@H]1OC	0.2
CCC(=O)O[C@@H]1CC(=O)O[C@H](C)C[C@H](O)[C@H](N(C)CCCc2ccccc2)/C=C/[C@H](OC(C)=O)[C@H](C)C[C@H](CC=O)[C@H](O[C@@H]2O[C@H](C)[C@@H](O)[C@H](N(C)C)[C@H]2O)[C@H]1OC	1.56
CCC(=O)O[C@@H]1CC(=O)O[C@H](C)C[C@H](O)[C@H](N(C)CCCc2ccccc2)/C=C/[C@H](OC(C)=O)[C@H](C)C[C@H](CC=O)[C@H](O[C@@H]2O[C@H](C)[C@@H](O[C@H]3C[C@@](C)(OC(C)=O)[C@@H](OC(=O)CC)[C@H](C)O3)[C@H](N(C)C)[C@H]2O)[C@H]1OC	0.39
CCC(=O)O[C@@H]1CC(=O)O[C@H](C)C[C@H](O)[C@H](N(C)CCCCCCc2ccccc2)/C=C/[C@H](OC(C)=O)[C@H](C)C[C@H](CC=O)[C@H](O[C@@H]2O[C@H](C)[C@@H](O[C@H]3C[C@@](C)(O)[C@@H](OC(=O)CC)[C@H](C)O3)[C@H](N(C)C)[C@H]2O)[C@H]1OC	0.39
CCC(=O)O[C@@H]1CC(=O)O[C@H](C)C[C@H](O)[C@H](N(C)CCCn2cnc(-c3cccnc3)c2)/C=C/[C@H](OC(C)=O)[C@H](C)C[C@H](CC=O)[C@H](O[C@@H]2O[C@H](C)[C@@H](O[C@H]3C[C@@](C)(O)[C@@H](OC(=O)CC)[C@H](C)O3)[C@H](N(C)C)[C@H]2O)[C@H]1OC	0.39
CC[C@H]1OC(=O)[C@H](C)[C@@H](O[C@H]2C[C@@](C)(OC)[C@@H](O)[C@H](C)O2)[C@H](C)[C@@H](O[C@@H]2O[C@H](C)C[C@H](N(C)C)[C@H]2O)[C@](C)(OC)C[C@@H](C)C(=O)[C@H](C)[C@@H](O)[C@]1(C)O	1.56
CCC(=O)O[C@@H]1CC(=O)O[C@H](C)C[C@@H]2OC(=O)N(CCCCc3ccccc3)[C@@H]2/C=C/[C@H](OC(C)=O)[C@H](C)C[C@H](CC=O)[C@H](O[C@@H]2O[C@H](C)[C@@H](O[C@H]3C[C@@](C)(O)[C@@H](OC(=O)CC)[C@H](C)O3)[C@H](N(C)C)[C@H]2O)[C@H]1OC	0.78
CCC(=O)O[C@@H]1CC(=O)O[C@H](C)C/C=C/C=C/[C@H](OC(C)=O)[C@H](C)C[C@H](CC=O)[C@H](O[C@@H]2O[C@H](C)[C@@H](O[C@H]3C[C@@](C)(O)[C@@H](OC(=O)CC)[C@H](C)O3)[C@H](N(C)C)[C@H]2O)[C@H]1OC	0.78
CCC(=O)O[C@@H]1CC(=O)O[C@H](C)C[C@H](O)[C@H](N(C)CCCc2cnc3ccccc3c2)/C=C/[C@H](OC(C)=O)[C@H](C)C[C@H](CC=O)[C@H](O[C@@H]2O[C@H](C)[C@@H](O[C@H]3C[C@@](C)(O)[C@@H](OC(=O)CC)[C@H](C)O3)[C@H](N(C)C)[C@H]2O)[C@H]1OC	0.39
CCC(=O)O[C@@H]1CC(=O)O[C@H](C)C[C@@H]2OC(=O)N(Cc3ccccc3)[C@@H]2/C=C/[C@H](OC(C)=O)[C@H](C)C[C@H](CC=O)[C@H](O[C@@H]2O[C@H](C)[C@@H](O[C@H]3C[C@@](C)(O)[C@@H](OC(=O)CC)[C@H](C)O3)[C@H](N(C)C)[C@H]2O)[C@H]1OC	0.78
